# measurement protocol: Critical micelle concentration (fluorescent dye solubilization)
# Format: physicochemical
Exercise: state measured CMC (wt %) for each of the compounds provided.

Please give CMC (wt %) for each item listed below.
1. CO[C@@H]1CC[C@@]2(C)[C@H](CC[C@@H]3[C@@H]2CC[C@]2(C)C(C(C)CCCC(CO[C@@H]4OC(CO)C(O[C@@H]5OC(CO)[C@@H](O)[C@H](O)C5O)[C@@H](O)C4O)CO[C@@H]4OC(CO)[C@@H](O[C@H]5OC(CO)[C@@H](O)[C@H](O)C5O)[C@H](O)C4O)CC[C@@H]32)C1 (some centres unmarked) [GLC-3]
2. CO[C@@H]1CC[C@@]2(C)[C@H](CC[C@@H]3[C@@H]2CC[C@]2(C)[C@@H]([C@H](C)CCC(=O)NC(CO[C@@H]4OC(CO)C(O[C@@H]5OC(CO)[C@@H](O)[C@H](O)C5O)[C@@H](O)C4O)CO[C@@H]4OC(CO)[C@@H](O[C@H]5OC(CO)[C@@H](O)[C@H](O)C5O)[C@H](O)C4O)CC[C@@H]32)C1 (some centres unmarked) [GLC-1]
3. C[C@@H]1CC[C@@]2(OC1)O[C@H]1C[C@H]3[C@@H]4CC=C5C[C@@H](OCCC(CO[C@@H]6OC(CO)[C@@H](O[C@H]7OC(CO)[C@@H](O)C(O)C7O)C(O)C6O)CO[C@@H]6OC(CO)[C@@H](O[C@H]7OC(CO)[C@@H](O)C(O)C7O)C(O)C6O)CC[C@]5(C)[C@H]4CC[C@]3(C)[C@@H]1[C@@H]2C (some centres unmarked) [GDN, glyco-diosgenin]
4. CCCCCCCCCCCCO[C@@H]1O[C@H](CO)[C@@H](O[C@H]2O[C@H](CO)[C@@H](O)[C@H](O)[C@H]2O)[C@H](O)[C@H]1O [DDM, dodecyl-β-D-maltoside, reference compound]
5. CO[C@@H]1CC[C@@]2(C)[C@H](CC[C@@H]3[C@@H]2CC[C@]2(C)[C@@H]([C@H](C)CCCOCC(C)(CO[C@@H]4OC(CO)C(O[C@@H]5OC(CO)[C@@H](O)[C@H](O)C5O)[C@@H](O)C4O)CO[C@@H]4OC(CO)[C@@H](O[C@H]5OC(CO)[C@@H](O)[C@H](O)C5O)[C@H](O)C4O)CC[C@@H]32)C1 (some centres unmarked) [GLC-2]

1: ~0.00077 wt %; 2: ~0.006 wt %; 3: ~0.0021 wt %; 4: ~0.0087 wt %; 5: ~0.0009 wt %

###

Exercise: state measured CMC for each of the compounds provided.
# measurement protocol: Critical micelle concentration (fluorescent dye solubilization)
# Format: physicochemical

{"compound": "C[C@@H]1CC[C@@]2(OC1)O[C@H]1C[C@H]3[C@@H]4CC=C5C[C@@H](OCCC(CO[C@@H]6OC(CO)[C@@H](O[C@H]7OC(CO)[C@@H](O)C(O)C7O)C(O)C6O)CO[C@@H]6OC(CO)[C@@H](O[C@H]7OC(CO)[C@@H](O)C(O)C7O)C(O)C6O)CC[C@]5(C)[C@H]4CC[C@]3(C)[C@@H]1[C@@H]2C (some centres unmarked)", "property": "CMC", "assay value": "~18 µM"}
{"compound": "CO[C@@H]1CC[C@@]2(C)[C@H](CC[C@@H]3[C@@H]2CC[C@]2(C)[C@@H]([C@H](C)CCC(=O)NC(CO[C@@H]4OC(CO)C(O[C@@H]5OC(CO)[C@@H](O)[C@H](O)C5O)[C@@H](O)C4O)CO[C@@H]4OC(CO)[C@@H](O[C@H]5OC(CO)[C@@H](O)[C@H](O)C5O)[C@H](O)C4O)CC[C@@H]32)C1 (some centres unmarked)", "property": "CMC", "assay value": "~52 µM"}
{"compound": "CO[C@@H]1CC[C@@]2(C)[C@H](CC[C@@H]3[C@@H]2CC[C@]2(C)[C@@H]([C@H](C)CCCOCC(C)(CO[C@@H]4OC(CO)C(O[C@@H]5OC(CO)[C@@H](O)[C@H](O)C5O)[C@@H](O)C4O)CO[C@@H]4OC(CO)[C@@H](O[C@H]5OC(CO)[C@@H](O)[C@H](O)C5O)[C@H](O)C4O)CC[C@@H]32)C1 (some centres unmarked)", "property": "CMC", "assay value": "~8.0 µM"}
{"compound": "CCCCCCCCCCCCO[C@@H]1O[C@H](CO)[C@@H](O[C@H]2O[C@H](CO)[C@@H](O)[C@H](O)[C@H]2O)[C@H](O)[C@H]1O [DDM, dodecyl-β-D-maltoside, reference compound]", "property": "CMC", "assay value": "~170 µM"}

Now for the compound whose CMC we want.
Please report CMC for the following compound: CO[C@@H]1CC[C@@]2(C)[C@H](CC[C@@H]3[C@@H]2CC[C@]2(C)C(C(C)CCCC(CO[C@@H]4OC(CO)C(O[C@@H]5OC(CO)[C@@H](O)[C@H](O)C5O)[C@@H](O)C4O)CO[C@@H]4OC(CO)[C@@H](O[C@H]5OC(CO)[C@@H](O)[C@H](O)C5O)[C@H](O)C4O)CC[C@@H]32)C1 (some centres unmarked)
~7.1 µM
